Measurement target: T1, Soluble ASGR-1 (recombinant, biotinylated) (human, UniProt P07306 62-291, limits assumed, biotinylated)
T1 construct: also called recombinant, soluble ASGR-1 biotinylated protein
T1 sequence: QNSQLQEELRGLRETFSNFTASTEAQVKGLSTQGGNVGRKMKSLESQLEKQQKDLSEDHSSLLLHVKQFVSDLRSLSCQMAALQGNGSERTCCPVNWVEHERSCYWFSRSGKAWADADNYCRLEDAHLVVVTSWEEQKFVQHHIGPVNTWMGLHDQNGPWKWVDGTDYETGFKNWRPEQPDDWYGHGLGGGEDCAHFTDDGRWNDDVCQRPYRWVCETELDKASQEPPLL
Assay notes: limiting antigen bead FACS; biotinylated soluble ASGR-1 coated at 2.5 ng/mL on LumAvidin beads;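 further: hybridoma supernatants of ligand-competing antibodies bound to antigen-loaded beads, read by flow cytometry on an iQue Screener in calcium-containing buffer, higher fluorescence meaning stronger relative affinity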
Readout label: FACS Geomean
The answer should be a number; do not append a unit.

So, 4A2 (antibody, V domains shown, Tested as hybridoma supernatant) VH: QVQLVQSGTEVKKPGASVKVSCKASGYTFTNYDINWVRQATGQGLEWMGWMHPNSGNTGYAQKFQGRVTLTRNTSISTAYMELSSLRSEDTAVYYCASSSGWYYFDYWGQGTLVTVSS VL: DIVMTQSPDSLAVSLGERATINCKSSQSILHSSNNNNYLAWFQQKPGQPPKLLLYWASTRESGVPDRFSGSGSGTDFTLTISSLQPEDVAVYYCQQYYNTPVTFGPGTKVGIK ? Its FACS Geomean was 16600

// field: FACS Geomean; key: 6G7 (antibody, V domains shown, Tested as hybridoma supernatant) VH: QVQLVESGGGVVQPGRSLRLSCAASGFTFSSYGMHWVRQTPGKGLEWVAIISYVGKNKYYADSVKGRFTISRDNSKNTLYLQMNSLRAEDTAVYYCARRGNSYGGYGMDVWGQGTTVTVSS VL: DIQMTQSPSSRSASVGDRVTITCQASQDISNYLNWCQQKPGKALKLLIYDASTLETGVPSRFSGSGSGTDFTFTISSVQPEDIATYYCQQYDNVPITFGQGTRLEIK ; value = 2290

Consider 7G4 (antibody, V domains shown, Tested as hybridoma supernatant) VH: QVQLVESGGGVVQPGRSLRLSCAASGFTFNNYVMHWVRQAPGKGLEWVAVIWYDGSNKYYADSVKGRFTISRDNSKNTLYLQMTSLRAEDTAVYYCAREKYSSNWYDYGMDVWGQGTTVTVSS VL: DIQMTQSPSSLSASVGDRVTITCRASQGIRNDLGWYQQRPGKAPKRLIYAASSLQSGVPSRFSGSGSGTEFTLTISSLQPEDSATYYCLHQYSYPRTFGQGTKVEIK . Its measured FACS Geomean is 6800

// FACS Geomean lookup, binder = 7E11 (antibody, V domains shown, Tested as hybridoma supernatant) VH: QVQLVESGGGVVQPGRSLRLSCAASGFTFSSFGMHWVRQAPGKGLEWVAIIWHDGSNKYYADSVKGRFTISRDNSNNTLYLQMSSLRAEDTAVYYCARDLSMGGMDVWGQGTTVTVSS VL: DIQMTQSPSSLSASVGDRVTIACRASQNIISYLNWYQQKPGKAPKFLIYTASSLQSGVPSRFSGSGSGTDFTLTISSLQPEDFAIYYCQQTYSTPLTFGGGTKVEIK , result: 4660

Please fill in: FACS Geomean reported for 176H4 (antibody, V domains shown, Tested as hybridoma supernatant) VH: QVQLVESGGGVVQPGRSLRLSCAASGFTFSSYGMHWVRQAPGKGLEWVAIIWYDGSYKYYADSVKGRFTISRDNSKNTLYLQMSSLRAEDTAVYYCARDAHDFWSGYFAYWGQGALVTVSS VL: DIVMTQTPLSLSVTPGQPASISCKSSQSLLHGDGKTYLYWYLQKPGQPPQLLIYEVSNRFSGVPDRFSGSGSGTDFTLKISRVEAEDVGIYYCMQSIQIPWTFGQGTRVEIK = 29400

The recorded FACS Geomean for entry 194A4 (antibody, V domains shown, Tested as hybridoma supernatant) VH: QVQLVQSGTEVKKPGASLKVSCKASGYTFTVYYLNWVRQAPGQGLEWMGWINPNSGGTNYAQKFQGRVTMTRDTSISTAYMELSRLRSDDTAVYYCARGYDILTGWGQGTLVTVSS VL: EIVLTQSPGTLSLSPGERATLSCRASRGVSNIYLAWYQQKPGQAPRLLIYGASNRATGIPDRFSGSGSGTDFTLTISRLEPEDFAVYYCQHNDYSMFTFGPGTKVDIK equals 38900

The measured FACS Geomean associated with 7F4 (antibody, V domains shown, Tested as hybridoma supernatant) VH: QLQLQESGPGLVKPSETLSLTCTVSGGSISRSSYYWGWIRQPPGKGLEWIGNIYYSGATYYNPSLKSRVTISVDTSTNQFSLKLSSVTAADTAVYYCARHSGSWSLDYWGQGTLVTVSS VL: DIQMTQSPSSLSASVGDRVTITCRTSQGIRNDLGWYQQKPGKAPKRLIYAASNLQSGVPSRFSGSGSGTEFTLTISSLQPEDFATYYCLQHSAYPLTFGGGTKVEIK reads 4910

Lab note: 75G3 (antibody, V domains shown, Tested as hybridoma supernatant) VH: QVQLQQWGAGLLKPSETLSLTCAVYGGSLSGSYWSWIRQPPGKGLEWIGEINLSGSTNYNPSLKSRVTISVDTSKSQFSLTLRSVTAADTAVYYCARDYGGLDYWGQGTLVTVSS VL: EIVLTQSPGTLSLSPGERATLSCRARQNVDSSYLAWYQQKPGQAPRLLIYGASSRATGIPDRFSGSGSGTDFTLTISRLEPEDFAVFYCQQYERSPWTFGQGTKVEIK gave FACS Geomean of 35800

In plain terms, 218G4 (antibody, V domains shown, Tested as hybridoma supernatant) VH: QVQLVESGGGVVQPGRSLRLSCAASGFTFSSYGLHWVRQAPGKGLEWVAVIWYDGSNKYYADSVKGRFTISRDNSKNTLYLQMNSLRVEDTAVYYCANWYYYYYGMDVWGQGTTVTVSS VL: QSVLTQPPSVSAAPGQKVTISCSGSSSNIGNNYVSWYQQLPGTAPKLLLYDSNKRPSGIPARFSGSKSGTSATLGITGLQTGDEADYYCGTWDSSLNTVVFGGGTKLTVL has a documented FACS Geomean of 15100

FACS Geomean measured on 198G3 (antibody, V domains shown, Tested as hybridoma supernatant) VH: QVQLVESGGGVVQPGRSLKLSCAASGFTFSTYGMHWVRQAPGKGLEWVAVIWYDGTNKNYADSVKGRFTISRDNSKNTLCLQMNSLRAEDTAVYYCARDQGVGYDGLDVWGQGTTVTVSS VL: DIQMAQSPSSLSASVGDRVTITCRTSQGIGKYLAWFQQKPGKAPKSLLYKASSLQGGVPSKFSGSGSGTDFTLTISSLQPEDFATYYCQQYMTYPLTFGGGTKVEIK = 26000
